Test: Log Pow (octanol/water partition coefficient) of direct dyes
Conditions: octanol/water partition coefficient of the dye
Provide the recorded Log Pow for the entries that follow.
// response body must contain only the number

Reported Log Pow, molecule CCN(CC)c1ccc2c(-c3ccc(S(=O)(=O)[O-])cc3S(=O)(=O)[O-])c3ccc(=[N+](CC)CC)cc-3oc2c1.[Na+] [ACID RED 52] : ____
1.3

Data request, read-out Log Pow, for O=[N+]([O-])c1cc(N(CCO)CCO)ccc1NCCO [HC BLUE NO. 2]
−0.32

Given Cc1cc(N(CCO)CCO)ccc1N=Nc1ccc(N)cc1 [HC YELLOW NO. 7] , state its recorded Log Pow.
2.59

So what's the measured Log Pow for this one? O=[N+]([O-])c1cc(N(CCO)CCO)ccc1NCCCO [HC VIOLET NO 2]
0.608

# query: Log Pow of entry CC1=CC(=C(c2cc(C)c(N)c(C)c2)c2c(Cl)cccc2Cl)C=C(C)C1=N.O=P(O)(O)O [HC BLUE NO. 15]
3.47

What value of measured Log Pow is listed for Cc1ccc(Nc2ccc(O)c3c2C(=O)c2ccccc2C3=O)c(S(=O)(=O)[O-])c1.[Na+] [ACID VIOLET 43] ?
3.1

State the recorded Log Pow for this entry: COS(=O)(=O)[O-].C[N+]1(CCCNc2ccc(O)c3c2C(=O)c2ccccc2C3=O)CCOCC1
0.89

# query: Log Pow of entry COc1ccc([N+](=O)[O-])c(NCCN)c1.Cl [HC YELLOW NO.9]
1.3

What measured Log Pow goes with O=S(=O)(O)c1cc(S(=O)(=O)O)c2c(/N=N\c3ccc(S(=O)(=O)O)c4ccccc34)c(O)ccc2c1 [ACID RED18] ?
1.63

Consider the molecule shown here: Cn1cc[n+](C)c1N=Nc1ccc(N)cc1.[Cl-] [BASIC ORANGE 31] What is its recorded Log Pow?
−2.31

I have this molecule here, Nc1c(N=Nc2ccc([N+](=O)[O-])cc2)c(S(=O)(=O)[O-])cc2cc(S(=O)(=O)[O-])c(N=Nc3ccccc3)c(O)c12.[Na+].[Na+] [ACID BLACK 1] , and I need its recorded Log Pow.
1.2

Data request, read-out Log Pow, for Cc1cc(N)c([N+](=O)[O-])cc1NCCO [HC VIOLET NO 1]
0.67

Tell me the measured Log Pow of CNc1cc(OCC(O)CO)ccc1[N+](=O)[O-] (centres unmarked) [2-NITRO-5-GLYCERYL METHYLANILINE] , please.
0.89

Can you share its Log Pow? I mean this molecule: NCCNc1ccc(OCCO)cc1[N+](=O)[O-] [HC ORANGE NO. 2]
0.13
